- Tested on: Mycobacterium smegmatis (ATCC607)
- Assay Name: In-vitro anti-bacterial activity against strain M. smegmatis ATCC607 (Alamar Blue growth inhibition)
- Format: cell-based
- Run Conditions: Mycolicibacterium smegmatis, 90% inhibitory concentration for bacterial growth, 48 hours at 37° C., read-out: IC90 (μg/ml) MSM 607
Assay Endpoint: IC90 (µg/mL)

These solved cases illustrate the format of a correct answer.
# Compound, Readout Units, Value Reported
rows = [
    ("CCn1c(=O)c(C(c2ccc(Cl)cc2)C2(O)CCN(Cc3ccccc3)CC2)cc2cc(Br)ccc21 (centres unmarked) [Compound 2]", "µg/mL", 3.57),
    ("CCn1c(=O)c(C(c2ccc(Cl)cc2)C2(O)CCN(Cc3ccccc3)CC2)cc2cc(-c3cccnc3)ccc21 (centres unmarked) [Compound 3]", "µg/mL", 3.56),
]

1: O=c1[nH]c2ccc(-c3cccnc3)cc2cc1C(c1ccc(Cl)cc1)C1(O)CCNCC1 (centres unmarked) [Compound 26]
2: COc1nc2ccc(Br)cc2cc1C(c1ccc(Cl)cc1)C1(O)CCN(Cc2cccc(F)c2)CC1 (centres unmarked) [Compound 17]
3: COc1nc2ccc(C(=O)Nc3cccnc3)cc2cc1C(c1ccc(Cl)cc1)C1(O)CCN(Cc2ccccc2)CC1 (centres unmarked) [Compound 24]
4: COc1nc2ccc(Br)cc2cc1C(c1ccc(SC)cc1)C1(O)CCNCC1 (centres unmarked) [Compound 9]
Order each entry by recorded IC90, climbing from the minimum. Give the order by naming the labels one after another as requested.
1, 4, 3, 2
(1: 3.09 µg/mL, 4: 4.78 µg/mL, 3: 7.47 µg/mL, 2: 14.3 µg/mL)

###

- Tested on: Staphylococcus aureus (ATCC29213)
- Assay Name: Microtitre plate assay, IC90 for bacterial growth, Staphylococcus aureus strain
- Type: cell-based
- Run Conditions: 90% inhibitory concentration for bacterial growth, 24 hours at 37° C., read-out: IC90 (μg/ml) STA B29213
Assay Endpoint: IC90

These solved cases illustrate the format of a correct answer.
# Compound, Target Or System, IC90
rows = [
    ("COc1nc2ccc(Br)cc2cc1C(c1ccc(S(C)(=O)=O)cc1)C1(O)CCNCC1 (stereo not shown)", "Staphylococcus aureus (ATCC29213)", "> 16.1 µg/mL"),
    ("COc1nc2ccc(-c3ccccc3)cc2cc1C(c1ccccc1)C1(O)CCN(Cc2ccccc2)CC1 (stereo not shown)", "Staphylococcus aureus (ATCC29213)", "> 32.5 µg/mL"),
    ("COc1nc2ccc(CO)cc2cc1C(c1ccc(Cl)cc1)C1(O)CCN(Cc2ccccc2)CC1 (stereo not shown)", "Staphylococcus aureus (ATCC29213)", "> 16.3 µg/mL"),
]

Alright, here's another compound for you.
Query for Staphylococcus aureus (ATCC29213): what IC90 does the record show for COc1nc2ccc(Br)cc2cc1[C@H](c1ccc(Cl)cc1)C1(O)CCN(Cc2ccccc2)CC1 ?
> 34.8 µg/mL

###

- Test system: Staphylococcus aureus (ATCC29213)
- Assay Name: Microtitre plate assay, IC90 for bacterial growth, Staphylococcus aureus strain
- Type: cell-based
- Run Conditions: 90% inhibitory concentration for bacterial growth, 24 hours at 37° C., read-out: IC90 (μg/ml) STA B29213
Assay Endpoint: IC90

These solved cases illustrate the format of a correct answer.
# Molecule, IC90
rows = [
    ("O=c1[nH]c2ccc(-c3cccnc3)cc2cc1C(c1ccc(Cl)cc1)C1(O)CCNCC1 (stereo not drawn)", "> 30.9 µg/mL"),
    ("COc1nc2ccc(Br)cc2cc1[C@@H](c1ccc(Cl)cc1)C1(O)CCN(Cc2ccccc2)CC1", "> 34.8 µg/mL"),
    ("COc1nc2ccccc2cc1C(c1ccccc1)C1(O)CCNCC1 (stereo not drawn)", "> 22 µg/mL"),
    ("C=Cc1ccc2nc(OC)c(C(c3ccc(Cl)cc3)C3(O)CCN(Cc4ccccc4)CC3)cc2c1 (stereo not drawn)", "> 39.8 µg/mL"),
    ("CS(=O)(=O)c1ccc2[nH]c(=O)c(C(c3ccccc3)C3(O)CCNCC3)cc2c1 (stereo not drawn)", "> 11.3 µg/mL"),
]

Alright, here's another molecule for you.
Fill in the blank: the reported IC90 of COc1nc2ccc(Br)cc2cc1C(c1ccc(Cl)cc1)C1(O)CCN(Cc2ccccc2)CC1 (stereo not drawn) is ____.
> 13.9 µg/mL

###

Assay Endpoint: melting point (°C)

# Compound, Value Reported
rows = [
    ("COc1nc2ccc(Br)cc2cc1C(c1ccc(C#N)cc1)C1(O)CCN(Cc2ccccc2)CC1 (stereo not drawn)", 220),
    ("O=c1[nH]c2ccc(Br)cc2cc1C(c1ccc2ccccc2c1)C1(O)CCN(Cc2ccccc2)CC1 (stereo not drawn)", 249),
    ("COc1nc2ccc(C(=O)Nc3cccnc3)cc2cc1C(c1ccc(Cl)cc1)C1(O)CCN(Cc2ccccc2)CC1 (stereo not drawn)", 146),
    ("C=Cc1ccc2nc(OC)c(C(c3ccc(Cl)cc3)C3(O)CCN(Cc4ccccc4)CC3)cc2c1 (stereo not drawn)", 195),
    ("COc1nc2ccc(C#N)cc2cc1C(c1ccc(Cl)cc1)C1(O)CCN(Cc2ccccc2)CC1 (stereo not drawn)", 199),
]
